Assay: RP-HPLC determination of capacity factors and log Po/w (Supelcosil LC-ABZ, MOPS buffer pH 7.4/methanol)
Settings: 50% methanol, MOPS buffer pH 7.4
attribute_measured: Capacity factors log k’50

Below: 2 compounds and their reported Capacity factors log k’50.
• Cc1c(C(=O)NCC(c2ccccc2)c2ccccc2)[n+]([O-])c2ccccc2[n+]1[O-] = 0.62
• Cc1ccc(CNC(=O)c2c(C)[n+]([O-])c3cc(Cl)c(Cl)cc3[n+]2[O-])cc1 = 0.93

I: Cc1c(C(=O)NCCc2ccccc2)[n+]([O-])c2cc(Cl)c(Cl)cc2[n+]1[O-]
II: Cc1c(C(=O)NCC(c2ccccc2)c2ccccc2)[n+]([O-])c2cc(Cl)c(Cl)cc2[n+]1[O-]
For this pair, I and II , which shows a numerically higher Capacity factors log k’50? Lab log: write the label of the selected item as the result. II

----------
Experiment: RP-HPLC determination of capacity factors and log Po/w (Supelcosil LC-ABZ, MOPS buffer pH 7.4/methanol)
Details: 60% methanol, MOPS buffer pH 7.4
attribute_measured: Capacity factors log k’60

• Cc1ccc(CNC(=O)c2c(C)[n+]([O-])c3ccc(Cl)cc3[n+]2[O-])cc1 [Compound 24] = 0.15
• Cc1c(C(=O)NCC(c2ccccc2)c2ccccc2)[n+]([O-])c2ccccc2[n+]1[O-] [Compound 26] = 0.14
• Cc1c(C(=O)NCCc2ccccc2)[n+]([O-])c2cc(Cl)ccc2[n+]1[O-] [Compound 16] = 0.00
• Cc1ccc2c(c1)[n+]([O-])c(C(=O)NCC(c1ccccc1)c1ccccc1)c(C)[n+]2[O-] [Compound 27] = 0.33
• Cc1ccc(CNC(=O)c2c(C)[n+]([O-])c3ccc(C)cc3[n+]2[O-])cc1 [Compound 23] = −0.01

1: Cc1c(C(=O)NCc2ccc(Br)cc2)[n+]([O-])c2ccccc2[n+]1[O-] [Compound 18]
2: Cc1ccc(CNC(=O)c2c(C)[n+]([O-])c3ccccc3[n+]2[O-])cc1 [Compound 22]
// returns 1 or 2 , whichever has the lower Capacity factors log k’60 Lab log: write the label of the selected item as the result. 2

a: Cc1ccc2c(c1)[n+]([O-])c(C(=O)NCCc1ccccc1)c(C)[n+]2[O-] [Compound 15]
b: Cc1c(C(=O)NCC(c2ccccc2)c2ccccc2)[n+]([O-])c2cc(Cl)ccc2[n+]1[O-] [Compound 28]
c: Cc1c(C(=O)NCCc2ccccc2)[n+]([O-])c2ccccc2[n+]1[O-] [Compound 14]
Sequence the entries by Capacity factors log k’60, beginning with the highest number. Use the labels to give the requested order. b, a, c

P: Cc1c(C(=O)NCC(c2ccccc2)c2ccccc2)[n+]([O-])c2cc(Cl)c(Cl)cc2[n+]1[O-] [Compound 29]
Q: Cc1c(C(=O)NCc2ccc(Br)cc2)[n+]([O-])c2cc(Cl)ccc2[n+]1[O-] [Compound 20]
For this pair, P and Q , which shows a numerically higher Capacity factors log k’60? Lab log: write the label of the selected item as the result. P
(P: 0.76, Q: 0.42)

----------
Assay: physchem
Conditions: pH 7.4, RP-HPLC log Po/w
attribute_measured: chromatographic logP

Below: 6 compounds and their reported chromatographic logP.
* Cc1ccc(CNC(=O)c2c(C)[n+]([O-])c3ccc(C)cc3[n+]2[O-])cc1 | 2.29
* Cc1ccc2c(c1)[n+]([O-])c(C(=O)NCc1ccc(Br)cc1)c(C)[n+]2[O-] | 2.69
* Cc1ccc(CNC(=O)c2c(C)[n+]([O-])c3ccc(Cl)cc3[n+]2[O-])cc1 | 2.77
* Cc1c(C(=O)NCc2ccccc2)[n+]([O-])c2cc(Cl)ccc2[n+]1[O-] | 2.25
* Cc1c(C(=O)NCC(c2ccccc2)c2ccccc2)[n+]([O-])c2ccccc2[n+]1[O-] | 3.18
* Cc1c(C(=O)NCc2ccccc2)[n+]([O-])c2ccccc2[n+]1[O-] | 1.76

1: Cc1ccc(CNC(=O)c2c(C)[n+]([O-])c3cc(Cl)c(Cl)cc3[n+]2[O-])cc1
2: Cc1c(C(=O)NCCc2ccccc2)[n+]([O-])c2ccccc2[n+]1[O-]
// returns 1 or 2 , whichever has the lower chromatographic logP Lab log: write the label of the selected item as the result. 2
(2: 1.88, 1: 3.18)

----------
Assay: RP-HPLC determination of capacity factors and log Po/w (Supelcosil LC-ABZ, MOPS buffer pH 7.4/methanol)
Conditions: reference compounds; capacity factor extrapolated to 0% methanol, pH 7.4
attribute_measured: log k’0
Provide a numeric answer; units are not to be included.

Below: 3 compounds and their reported log k’0.
• CCC(C)=O [Compound 1, 2-Butanone, reference compound] = −0.06
• Clc1ccccc1 [Compound 6, Chlorobenzene, reference compound] = 2.62
• c1ccccc1 [Compound 5, Benzene, reference compound] = 1.87

// below: log k’0 requested for another compound
So, Nc1ccccc1 [Compound 2, Aniline, reference compound] ? Its log k’0 was 0.67
